Assayed target: human PTP-1B (1-321) (Homo sapiens, UniProt P18031)
Construct: ID No.2; made in house; host or cells: Escherichia coli BL21 DE3 (plasmid pET-hPTP1B (1-321), vector pET-11c)
Sequence (P18031 1-321): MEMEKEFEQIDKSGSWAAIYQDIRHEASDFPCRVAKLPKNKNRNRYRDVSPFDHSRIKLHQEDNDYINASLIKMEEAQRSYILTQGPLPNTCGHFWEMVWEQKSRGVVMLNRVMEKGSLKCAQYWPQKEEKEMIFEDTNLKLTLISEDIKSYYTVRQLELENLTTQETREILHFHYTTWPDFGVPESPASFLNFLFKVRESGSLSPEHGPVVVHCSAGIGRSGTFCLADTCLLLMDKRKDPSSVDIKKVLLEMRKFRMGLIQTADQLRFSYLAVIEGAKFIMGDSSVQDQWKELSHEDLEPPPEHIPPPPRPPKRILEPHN
Experiment summary: Determination of PTP-1B enzyme inhibitory activity (phosphopeptide substrate, malachite green)
Format: biochemical
Condition info: each compound 100 μM; peptide substrate, 37° C., 10 min
Hi there, I'd appreciate the recorded inhibitory activity (%) for every entry that follows.
Numbers only here, please. The scale is %.

Using the record for CC(C)(C)N.CCCCC=CC(=O)N1Cc2cc(OCCc3nc(/C=C/CC(C)C)oc3C)ccc2C[C@H]1C(=O)O (stereo in doubt) [Reference Example 24] , report its inhibitory activity (%). 92

Using the record for CC(C)(C)N.CC=CC=CC(=O)N1Cc2cc(OCCc3nc(/C(C)=C/CCC)oc3C)ccc2C[C@H]1C(=O)O (stereo in doubt) [Reference Example 33] , report its inhibitory activity (%). 92

Using the record for CC(C)(C)N.CC=CC=CC(=O)N1Cc2cc(OCCc3nc(/C=C/CCCF)oc3C)ccc2C[C@H]1C(=O)O (stereo in doubt) [Reference Example 66] , report its inhibitory activity (%). 80

Using the record for CC(C)(C)N.CC=CC=CC(=O)N1Cc2cc(OCCc3nc(/C=C/CCC(C)C)oc3C)ccc2C[C@H]1C(=O)O (stereo in doubt) [Reference Example 30] , report its inhibitory activity (%). 96

Using the record for CC(C)(C)N.CC=CC=CC(=O)N1Cc2cc(OCCc3nc(/C=C/C4CCCC4)oc3C)ccc2C[C@H]1C(=O)O (stereo in doubt) [Reference Example 22] , report its inhibitory activity (%). 95

Using the record for CC(C)(C)N.CC=CC=CC(=O)N1Cc2cc(OCCc3coc(/C(C)=C/CCC)n3)ccc2C[C@H]1C(=O)O (stereo in doubt) [Reference Example 83] , report its inhibitory activity (%). 82

Using the record for CC(C)(C)N.CC=CC=CC(=O)N1Cc2cc(OCCc3nc(/C=C/C4CCCCC4)oc3C)ccc2C[C@H]1C(=O)O (stereo in doubt) [Reference Example 40] , report its inhibitory activity (%). 90

Using the record for CC(C)(C)N.CC=CC=CC(=O)N1Cc2cc(OCCc3nc(/C=C/CCCC)oc3C)ccc2C[C@H]1C(=O)O (stereo in doubt) [Reference Example 27] , report its inhibitory activity (%). 88
